tested on: wild oat (Avena fatua); test: Test B pre-/postemergence plant response; type: in vivo; conditions: 8 g ai/ha, postemergence; 0-100 scale
MEASURE_NAME: Oat, Wild plant response rating

INSERT INTO results (entry_smiles, measure_name, numeric_value) VALUES
  ('COC(=O)Oc1cnn(C)c(=O)c1-n1nc(-c2ccc(Cl)cc2)cc1C', 'Oat, Wild plant response rating', 90),
  ('CCc1cc(-c2ccc(Cl)cc2)nn1-c1c(OS(C)(=O)=O)cnn(C)c1=O', 'Oat, Wild plant response rating', 95),
  ('CCc1cc(-c2ccc(Cl)cc2)nn1-c1c(OC(=O)C(C)(C)C)cnn(C)c1=O', 'Oat, Wild plant response rating', 95),
  ('CCc1c(C)c(-c2ccc(Cl)cc2)nn1-c1c(O)cnn(C)c1=O', 'Oat, Wild plant response rating', 85),
  ('CCc1cc(-c2ccc(Br)cc2)nn1-c1c(O)cnn(C)c1=O', 'Oat, Wild plant response rating', 100),
  ('CCc1cc(-c2ccc(F)cc2)nn1-c1c(O)cnn(C)c1=O', 'Oat, Wild plant response rating', 25),
  ('Cc1nn(C)c(=O)c(-n2nc(-c3ccc(Br)cc3)cc2C)c1O', 'Oat, Wild plant response rating', 80);

---

test system: blackgrass (Alopecurus myosuroides); assay: Test B pre-/postemergence plant response; format: in vivo; settings: 8 g ai/ha, postemergence; 0-100 scale
MEASURE_NAME: Blackgrass plant response rating

INSERT INTO measurements (entry_smiles, numeric_value) VALUES
  ('Cn1ncc(O)c(-c2nn(-c3ccc(Cl)cc3)cc2Cl)c1=O', 60),
  ('CCc1c(C)c(-c2ccc(Cl)cc2)nn1-c1c(O)cnn(C)c1=O', 0),
  ('COCc1cc(-c2ccc(Br)cc2)nn1-c1c(O)cnn(C)c1=O', 0),
  ('CCc1cc(-c2ccc(Cl)c(Cl)c2)nn1-c1c(O)cnn(C)c1=O', 30),
  ('CCc1cc(-c2ccc(Cl)cc2)nn1-c1c(OC(=O)C(C)(C)C)cnn(C)c1=O', 85);

---

Measured Plant response rating, Surinam Grass by item
system: surinam grass (Brachiaria decumbens); experiment: Test B pre-/postemergence plant response; type: in vivo; conditions: Preemergence, 31 g ai/ha; 0 to 100 scale, 0 no effect, 100 complete control
MEASURE_NAME: Plant response rating, Surinam Grass

INSERT INTO results (molecule, numeric_value) VALUES
  ('CCc1cc(-c2ccc(C(F)(F)F)cc2)nn1-c1c(OS(C)(=O)=O)cnn(C)c1=O [Compound 19]', 98),
  ('CCc1cc(-c2ccc(Cl)c(Cl)c2)nn1-c1c(O)cnn(C)c1=O [Compound 20]', 50),
  ('COC(=O)Oc1cnn(C)c(=O)c1-n1nc(-c2ccc(Cl)cc2)cc1C [Compound 33]', 98),
  ('Cc1cc(-c2ccc(Cl)cc2)nn1-c1c(OS(C)(=O)=O)cnn(C)c1=O [Compound 36]', 100),
  ('Cc1cc(-c2ccc(Cl)cc2)nn1-c1c(OC(=O)C(C)C)cnn(C)c1=O [Compound 34]', 100);

---

system: pigweed (Amaranthus retroflexus); experiment: Test B pre-/postemergence plant response; type: in vivo; conditions: Postemergence, 62 g ai/ha; scale 0 to 100, 0 no effect, 100 complete control
Overview of reported Plant response rating, Pigweed across a group of molecules:
MEASURE_NAME: Plant response rating, Pigweed

INSERT INTO results (entry_smiles, numeric_value) VALUES
  ('Cc1nn(C)c(=O)c(-n2nc(-c3ccc(Br)cc3)cc2C)c1O', 0),
  ('CCc1cc(-c2ccc(C(F)(F)F)cc2)nn1-c1c(O)cnn(CC)c1=O', 0),
  ('CCc1cc(-c2ccc(Br)cc2)nn1-c1c(O)cnn(C)c1=O', 0),
  ('COC(=O)Oc1cnn(C)c(=O)c1-n1nc(-c2ccc(Cl)cc2)cc1C', 0),
  ('CCc1cc(-c2ccc(Cl)cc2)nn1-c1c(OC(=O)C(C)(C)C)cnn(C)c1=O', 0);

---

# Plant response rating, Bromegrass, Downy per entry
system: downy bromegrass (Bromus tectorum); assay: Test B pre-/postemergence plant response; assay type: in vivo; conditions: Preemergence, 62 g ai/ha; scale 0 to 100
MEASURE_NAME: Plant response rating, Bromegrass, Downy

INSERT INTO assay_data (entry_smiles, experimental_target, numeric_value) VALUES
  ('CCc1cc(-c2ccc(F)cc2)nn1-c1c(O)cnn(C)c1=O', 'downy bromegrass (Bromus tectorum)', 0),
  ('COC(=O)Oc1cnn(C)c(=O)c1-n1nc(-c2ccc(Cl)cc2)cc1C', 'downy bromegrass (Bromus tectorum)', 100),
  ('Cc1cc(-c2ccc(Cl)cc2)nn1-c1c(OS(C)(=O)=O)cnn(C)c1=O', 'downy bromegrass (Bromus tectorum)', 90),
  ('Cc1cc(-c2ccc(Cl)cc2)nn1-c1c(OS(=O)(=O)c2ccccc2[N+](=O)[O-])cnn(C)c1=O', 'downy bromegrass (Bromus tectorum)', 85),
  ('Cn1ncc(O)c(-c2nn(-c3ccc(Cl)cc3)cc2Br)c1=O', 'downy bromegrass (Bromus tectorum)', 85),
  ('CCc1cc(-c2ccc(Cl)c(Cl)c2)nn1-c1c(O)cnn(C)c1=O', 'downy bromegrass (Bromus tectorum)', 0);

---

tested on: surinam grass (Brachiaria decumbens); test: Test B pre-/postemergence plant response; assay type: in vivo; settings: 8 g ai/ha, postemergence; 0-100 scale
MEASURE_NAME: Surinam Grass plant response rating

INSERT INTO assay_data (entry_smiles, measure_name, numeric_value) VALUES
  ('Cc1cc(-c2ccc(Cl)cc2)nn1-c1c(OC(=S)N(C)C)cnn(C)c1=O', 'Surinam Grass plant response rating', 65),
  ('CCc1c(C)c(-c2ccc(Cl)cc2)nn1-c1c(O)cnn(C)c1=O', 'Surinam Grass plant response rating', 85),
  ('Cn1ncc(O)c(-c2nn(-c3ccc(Cl)cc3)cc2Cl)c1=O', 'Surinam Grass plant response rating', 65);

---

Documented Plant response rating, Johnsongrass across a set of compounds
test system: johnsongrass (Sorghum halepense); assay: Test B pre-/postemergence plant response; format: in vivo; conditions: Postemergence, 62 g ai/ha; scale 0 to 100, 0 no effect, 100 complete control
MEASURE_NAME: Plant response rating, Johnsongrass

INSERT INTO measurements (entry_smiles, measure_name, numeric_value) VALUES
  ('CCc1cc(-c2ccc(C(F)(F)F)cc2)nn1-c1c(O)cnn(CC)c1=O', 'Plant response rating, Johnsongrass', 100),
  ('Cc1cc(-c2ccc(Cl)cc2)nn1-c1c(OS(C)(=O)=O)cnn(C)c1=O', 'Plant response rating, Johnsongrass', 100),
  ('COC(=O)Oc1cnn(C)c(=O)c1-n1nc(-c2ccc(Cl)cc2)cc1C', 'Plant response rating, Johnsongrass', 90),
  ('COCc1cc(-c2ccc(Br)cc2)nn1-c1c(O)cnn(C)c1=O', 'Plant response rating, Johnsongrass', 30);

---

test system: goosegrass (Eleusine indica); test: Test B pre-/postemergence plant response; type: in vivo; conditions: Preemergence; 16 g ai/ha; scale 0 to 100
Catalogue of molecules with associated Goosegrass plant response rating
MEASURE_NAME: Goosegrass plant response rating

INSERT INTO measurements (entry_smiles, measure_name, result) VALUES
  ('C#CCOC(=O)Oc1cnn(C)c(=O)c1-n1nc(-c2ccc(Cl)cc2)cc1C', 'Goosegrass plant response rating', 85),
  ('Cc1cc(-c2ccc(Cl)cc2)nn1-c1c(OC(=O)OCC(C)C)cnn(C)c1=O', 'Goosegrass plant response rating', 0),
  ('Cc1cc(-c2ccc(Br)cc2)nn1-c1c(O)cn[nH]c1=O', 'Goosegrass plant response rating', 100),
  ('Cc1cc(-c2ccc(Cl)cc2)nn1-c1c(OC(=S)N(C)C)cnn(C)c1=O', 'Goosegrass plant response rating', 0);

---

tested on: Italian ryegrass (Lolium multiflorum); test: Test B pre-/postemergence plant response; format: in vivo; settings: Preemergence, 16 g ai/ha; scale 0 to 100 (0 no effect, 100 complete control)
MEASURE_NAME: Plant response rating, Ryegrass, Italian

INSERT INTO assay_data (entry_smiles, experimental_target, measure_name, numeric_value) VALUES
  ('CCc1cc(-c2ccc(Cl)cc2)nn1-c1c(OC(=O)OC(C)C)cnn(C)c1=O', 'Italian ryegrass (Lolium multiflorum)', 'Plant response rating, Ryegrass, Italian', 85),
  ('CCc1cc(-c2ccc(Cl)cc2)nn1-c1c(OC(=O)C(C)(C)C)cnn(C)c1=O', 'Italian ryegrass (Lolium multiflorum)', 'Plant response rating, Ryegrass, Italian', 95),
  ('Cc1cc(-c2ccc(Cl)cc2)nn1-c1c(OC(=O)C(C)C)cnn(C)c1=O', 'Italian ryegrass (Lolium multiflorum)', 'Plant response rating, Ryegrass, Italian', 100),
  ('Cn1ncc(O)c(-c2nn(-c3ccc(Cl)cc3)cc2Br)c1=O', 'Italian ryegrass (Lolium multiflorum)', 'Plant response rating, Ryegrass, Italian', 90);
